Value source: ChEMBL document CHEMBL1201862

Test system: M19-MEL
test description: NCI tumour cell line growth inhibition, 48 h
Calls of active or inactive are those of the source. Cut-off read from the data, not from the text of the source: active = GI50 up to about 1.1 µM and inactive = higher.

compound	GI50
O=C(c1ccc(Cl)cc1)c1ccc(OCCCOc2ccc(C(=O)c3ccc(Cl)cc3)cc2Cl)c(Cl)c1	> 100 µM (inactive)
O=C(c1ccc([N+](=O)[O-])cc1[N+](=O)[O-])N(/N=C/C=C/c1ccccc1)c1nnc(-c2ccccc2)c(-c2ccccc2)n1	36.7 µM (inactive)
CC(C)C(Sc1nc(-c2ccccc2)c(-c2ccccc2)[nH]1)C(=O)N/N=C/c1ccc(Cl)cc1 (stereo not given)	19.4 µM (inactive)
CCC1(c2c(F)c(F)c(N)c(F)c2F)CCC(=O)NC1=O (stereo not given)	> 100 µM (inactive)
O=C1C=C(Br)C(=O)C12CCc1ccccc12 (stereo not given)	19 µM (inactive)
COc1ccc(C(=O)Cc2cc(OC)ccc2OC)cc1	> 100 µM (inactive)
O=C(NC(Cc1ccccc1)C(=O)CCl)OCc1ccccc1 (stereo not given)	13.7 µM (inactive)
CNS(=O)(=O)NN(C)S(=O)(=O)c1ccc(C)cc1	> 100 µM (inactive)
CN(C)CC1CC/C(=C\c2ccc(O)cc2)C1=O (stereo not given)	2.78 µM (inactive)
COC(=O)C(C(=O)C(=O)Nc1ccc(OC)cc1[N+](=O)[O-])c1nc2cc(C)c(C)cc2nc1O (stereo not given)	> 100 µM (inactive)
